These entries and their values trace back to the supplement of paper PMC4466140.

Target: CaBzz1-D2
Experiment: SPOT peptide array binding signal intensity (averaged, normalized) (arbitrary units (background-subtracted, floor 0; scale differs between SH3 domains)); higher = stronger binding of the SH3 domain to the peptide
readout: SPOT peptide array binding signal intensity
Lab note: jot the number down without any unit.

INSERT INTO assay_data (binder, number) VALUES
  ('IKKRNKIRLPSGSPE', 132);

Consider the binder shown here: MPAPPPPPPPPPGAF What is its recorded SPOT peptide array binding signal intensity?
69.1

Field entry: NHSRSLFSLPGNQQS
31

Field entry: VLRFLGFPLPIFEKG
0.25
